# assay-comment: Acute toxicity in mice (intravenous LD50)
# assay-setup: mouse, in vivo, read-out: acute toxicity (LD₅₀, intravenous)
attribute-measured: LD50 (mg/kg)
Use mg/kg as the unit, but write only the number.

For the compound shown here, "C[C@H]1COc2c(N3CCN(C)CC3)c(F)cc3c(=O)c(C(=O)O)cn1c23" , give the reported LD50.
244
